pIC50: −log10 of the molar value.
# literature pull: BTK (Homo sapiens) pIC50

[
  {
    "Molecule": "CN(c1ncnc2[nH]ccc12)C1CCCN(C(=O)CNc2cccc(Cl)c2)C1C(F)(F)F (stereo not shown)",
    "pIC50": "> 7.00"
  }
]

Record C=CC(=O)N1CCC[C@@H](n2nc(-c3ccc(Oc4ccccc4F)cc3)c3cncnc32)C1 : what is its pIC50 with BTK (Homo sapiens)?
> 7.00

Record Cc1cc(-c2ccnc(Nc3cnn(CCO)c3)n2)ccc1CNC(=O)N1CC(OC(C)(C)C)C1 : what is its pIC50 with BTK (Homo sapiens)?
> 8.00

Record CC1CCCN(S(=O)(=O)c2ccccc2NCC(=O)N[C@@H]2CCCN(c3ncnc4[nH]ncc34)C2)C1 (stereo partly shown) : what is its pIC50 with BTK (Homo sapiens)?
> 7.00

* * *

# literature pull: BTK (Homo sapiens) IC50
Measured Parameter: IC50 (nM)

A = C=CC(=O)N1CC[C@]2(C1)C[C@H](n1c(NC(=O)c3cnc(C(C)C)s3)nc3cc(CN[C@@H](C)C(C)(C)C)ccc31)C2
B = CC(C)(O)CCc1cn2cc(NC(=O)c3coc(-c4ccnc5[nH]ccc45)n3)c(N3CCCCC3)cc2n1
C = C=CC(=O)N1CC[C@H](Nc2cncc(-c3cnc(Oc4cccc(Cl)c4)nc3)c2)C1
For the compounds shown above, give the order from largest IC50 to smallest. Order the labels as requested and give them as your answer.
C, A, B
(C: 72.4 nM, A: 2.2 nM, B: 0.6 nM)

* * *

# literature pull: BTK (Homo sapiens, UniProt Q06187) pIC50
# Sequence (Q06187 whole entry): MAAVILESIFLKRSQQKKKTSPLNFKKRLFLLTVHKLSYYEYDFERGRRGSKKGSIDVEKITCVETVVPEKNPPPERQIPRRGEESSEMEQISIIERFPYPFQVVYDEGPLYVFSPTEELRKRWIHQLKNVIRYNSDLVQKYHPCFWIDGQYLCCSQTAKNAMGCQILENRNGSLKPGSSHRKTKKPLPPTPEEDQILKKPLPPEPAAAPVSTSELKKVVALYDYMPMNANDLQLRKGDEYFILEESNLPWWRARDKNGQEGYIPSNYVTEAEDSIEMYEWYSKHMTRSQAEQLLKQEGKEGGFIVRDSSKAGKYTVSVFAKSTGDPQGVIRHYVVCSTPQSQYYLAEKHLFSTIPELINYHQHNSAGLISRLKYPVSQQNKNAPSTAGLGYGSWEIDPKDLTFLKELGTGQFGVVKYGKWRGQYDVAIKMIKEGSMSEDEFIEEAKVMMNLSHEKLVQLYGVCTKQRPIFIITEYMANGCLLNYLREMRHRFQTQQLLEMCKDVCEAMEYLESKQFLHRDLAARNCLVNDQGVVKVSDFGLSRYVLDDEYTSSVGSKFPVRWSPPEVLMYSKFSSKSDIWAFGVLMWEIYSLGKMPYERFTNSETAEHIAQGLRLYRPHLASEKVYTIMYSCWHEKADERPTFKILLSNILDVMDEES
pIC50: −log10 of the molar value.

Reference set, count: 4
[
  {
    "Compound": "O=C(c1ccc(O)cc1Cl)c1c[nH]c2ncc(-c3cccs3)cc12",
    "Experimental Result": "≥ 5.00"
  },
  {
    "Compound": "CC(NC(=O)c1nc2c(s1)CCCC2)c1ccc(-c2ncnc3[nH]ncc23)cc1C(F)(F)F (centres unmarked)",
    "Experimental Result": "6.00 to 7.00"
  },
  {
    "Compound": "C=CC(=O)N1C[C@H](n2cc(-c3ccc(Oc4ccccc4)cc3)c3c(N)n[nH]c(=O)c32)CC(F)(F)C1",
    "Experimental Result": "≥ 8.00"
  },
  {
    "Compound": "C=CC(=O)N1CCCC(c2cnc(C(N)=O)c3[nH]c4c(c23)CCCC4)C1 (centres unmarked)",
    "Experimental Result": "7.00 to 8.00"
  }
]

Record C=CC(=O)N1CCCC(c2nc(C(N)=O)c(-c3ccc(Oc4ccccc4)cc3)s2)C1 (centres unmarked) : what is its pIC50 with BTK (Homo sapiens, UniProt Q06187)?
> 6.30

Record O=C1Nc2cc(Nc3nc4c(-c5nccs5)nccn4n3)ccc2OC1(F)F : what is its pIC50 with BTK (Homo sapiens, UniProt Q06187)?
4.30 to 5.52

Record COCCn1cc(Nc2nccc(-c3ccc4c(c3)CCCCC4NC(=O)N3CCC(C(C)C)C3)n2)cn1 (centres unmarked) : what is its pIC50 with BTK (Homo sapiens, UniProt Q06187)?
> 8.00

Record CCC#CC(=O)N1CC2CC1C(n1nc(-c3ccc(Oc4ccccc4)cc3)c3c(N)ncnc31)C2 (centres unmarked) : what is its pIC50 with BTK (Homo sapiens, UniProt Q06187)?
< 6.00

* * *

pIC50: −log10 of the molar value.
# literature pull: BTK (Homo sapiens, UniProt Q06187) pIC50

Recorded pIC50 of Cn1cc(-c2cn3nccc3c(-c3ccc(CNC(=O)c4cnn(C(C)(C)C)n4)c(C(F)F)c3)n2)cn1 , please.
> 9.00

Recorded pIC50 of CC(C)N1Cc2cc(F)cc(F)c2OCCCNC(=O)c2cnn3ccc1nc23 , please.
8.01

Recorded pIC50 of C=CC(=O)Nc1cccc(Oc2nc(Nc3ccc(C(=O)NC4CCN(C)CC4)cc3)nc3ccsc23)c1 , please.
≥ 7.30

Recorded pIC50 of C=CC(=O)NC1CCC(Nc2nc(Nc3cnn(C)c3)nc3ccsc23)CC1 (centres unmarked) , please.
≥ 7.30

Recorded pIC50 of Cc1c(NS(C)(=O)=O)cccc1C(=O)c1c[nH]c2ncc(-c3ccccc3)cc12 , please.
≥ 5.00

* * *

# literature pull: BTK (Homo sapiens, UniProt Q06187) IC50
Measured Parameter: IC50 (nM)

Reference set, count: 3
[
  {
    "Compound": "C=CC(=O)N1CC2CC1C(n1nc(-c3cccc(C(=O)Nc4ccc(C(F)(F)F)nc4)c3)c3c(N)ncnc31)C2 (centres unmarked)",
    "IC50 / nM": 295
  },
  {
    "Compound": "CN1CCc2cc(-c3cccc4c(N)c(C(N)=O)nnc34)ccc21",
    "IC50 / nM": 5010
  },
  {
    "Compound": "C=CC(=O)N1CC[C@]2(C1)C[C@H](n1c(NC(=O)c3ccc(-c4cnco4)s3)nc3cc(CNCC(C)(C)CO)ccc31)C2",
    "IC50 / nM": 0.66
  }
]

I = Nc1c(-c2ccccc2)c2nc3c(cnn13)C(=O)NCCOc1ncc(F)cc1CN2
II = Cc1c(NC(=O)c2ccc(C(C)(C)C)cc2)cccc1-c1ncnc(Nc2ccc(C(=O)N3CCC(O)CC3)cc2)n1
Of the pair I and II , name the member with the lesser recorded IC50. Please respond with the label that marks your chosen entry.
I
(I: 3.5 nM, II: 12.6 nM)

A = C=CC(=O)N1CC2CC1C(n1nc(-c3ccc(NC(=O)c4ccccc4)cc3)c3c(N)ncnc31)C2 (centres unmarked)
B = CCOc1c2c(n3c1C(=O)N(c1nccc(-c4cc(Nc5ccc(N6CCN(C7COC7)C[C@@H]6C)cn5)c(=O)n(C)c4)c1CO)CC3)CC(C)(C)C2
Of the pair A and B , name the member with the lesser recorded IC50. Please respond with the label that marks your chosen entry.
B
(B: 0.55 nM, A: 5.1 nM)

* * *

# literature pull: UniProtKB Q06187 IC50

[
  {
    "Compound": "C=CC(=O)N1CCc2c(cccc2-c2c(F)cc(C(N)=O)c3[nH]c4c(c23)CCCCC4)C1 (single isomer, unassigned)",
    "IC50": "10 to 100 nM"
  }
]

Recorded IC50 of CCN(C)S(=O)(=O)c1ccccc1NCC(=O)N[C@@H]1CCCN(c2ncnc3[nH]ncc23)C1 , please.
< 100 nM

Recorded IC50 of O=C(CNc1ccc(C(F)(F)F)cc1)N1CCC[C@H](Nc2ncnc3[nH]ncc23)C1 , please.
> 10000 nM

Recorded IC50 of Cn1cc(-c2cc3c(-c4ccc5c(c4)CCCC5NC(=O)c4cnc(C(C)(C)C)s4)ncnc3[nH]2)cn1 (stereo not drawn) , please.
< 10 nM

Recorded IC50 of C=CC(=O)N1CC[C@@H](Nc2nc(Nc3cnn(C)c3)nc3sccc23)C1 , please.
50 to 100 nM

Recorded IC50 of CN(C/C=C/C(=O)N1CC[C@@H](n2c(Cl)c(-c3ccc(Cl)cc3)c3c(N)ncnc32)C1)C1CC1 , please.
< 100 nM

Recorded IC50 of Cc1nccc(-c2cccc(NCC(=O)N[C@@H]3CCCN(c4ncnc5[nH]ccc45)C3)c2)n1 , please.
1000 to 10000 nM

Recorded IC50 of C=CC(=O)N[C@H]1C[C@@H](F)CN(c2c(F)cc(C(N)=O)c3[nH]c(C)c(C)c23)C1 , please.
10 to 100 nM

Recorded IC50 of CN(C/C=C/C(=O)N1CC[C@@H](n2nc(-c3ccc(Cl)cc3)c3c(N)ncnc32)C1)C1CC1 , please.
< 100 nM

* * *

# literature pull: UniProtKB Q06187 IC50
Measured Parameter: IC50 (nM)

A = C#CC(=O)N1CCC(C2CCNn3c2nc(-c2ccc(Oc4ccccc4)cc2)c3C(N)=O)CC1 (stereo not drawn)
B = CC(C)(C)c1cc(F)c2c(=O)n(-c3cccc(-c4coc(C(N)=O)c4)c3CO)ncc2c1
Which of the two items, A and B , has the greater recorded IC50? Please respond with the label that marks your chosen entry.
B

1 = CN(C)C/C=C/C(=O)N1CC2CCCC2[C@H]1c1nc(-c2ccc(C(=O)Nc3ccccn3)cc2)c2c(N)nccn12 (stereo partly drawn)
2 = Cc1ccc(CNc2nc3ccc(-c4cccc5c(N)c(C(N)=O)nnc45)cc3[nH]2)cc1
Of the pair 1 and 2 , name the member with the lesser recorded IC50. Please respond with the label that marks your chosen entry.
1

* * *

pIC50: −log10 of the molar value.
# literature pull: UniProt:Q06187 pIC50
Measured Parameter: pIC50

[
  {
    "Compound": "C=CC(=O)N1CC[C@]2(C1)C[C@H](n1c(NC(=O)c3cc(C(C)(C)C)no3)nc3cc(CN4CCCC4)ccc31)C2",
    "Target": "UniProt:Q06187",
    "Experimental Result": 7.22
  },
  {
    "Compound": "C=CC(=O)N1CC(n2c(=O)n(-c3ccc(Oc4ccccc4)cc3)c3c(N)ncnc32)C1",
    "Target": "UniProt:Q06187",
    "Experimental Result": 8.40
  }
]

1 = C=CC(=O)N1CC[C@]2(C1)C[C@H](n1c(NC(=O)c3ccc(-c4cnc(C)nc4)s3)nc3ccccc31)C2
2 = C=CC(=O)N1C2CN[C@@H](C2)C1c1nc(-c2ccc(Oc3ccccc3)cc2)c2c(N)nccn12 (stereo partly drawn)
Which of the two items, 1 and 2 , has the greater recorded pIC50? Please respond with the label that marks your chosen entry.
1
(1: 7.90, 2: 7.33)
